Tested on: K562 cell line
Assay summary: MTT assay: cytotoxicity against the K562 cell line
Assay type: cell-based
Applied conditions: Homo sapiens, K562 cells, 72 h, growth inhibition
Where a name gives a salt, the structure may show the parent alone.
Observed property: IC50 (nM)
Please give a number only; it is taken to be in nM.

# count of solved cases: 3
CCOc1ccc2c(Cc3cc(OC)c(OC)c(OC)c3)cncc2c1Cl [Compound 106, hydrochloride]	885
CCOc1ccc2c(Cc3cc(I)c(OC)c(OC)c3)cncc2c1O [Compound 72, hydrochloride]	18.3
CCOc1ccc2c(Cc3cc(OC)c(OCC(C)C)c(OC)c3)cncc2c1N [Compound 31, dihydrochloride]	37

Here is the next item to consider.
# input Sample CCOc1ccc2c(C(=O)c3cc(Br)c(OC)c(OC)c3)cncc2c1OC(C)=O [Compound 115] — what was its IC50?
# output 20.8

====

Target under test: purified tubulin (Sus scrofa, UniProt P02550+P02554)
Sequence (P02554 whole entry): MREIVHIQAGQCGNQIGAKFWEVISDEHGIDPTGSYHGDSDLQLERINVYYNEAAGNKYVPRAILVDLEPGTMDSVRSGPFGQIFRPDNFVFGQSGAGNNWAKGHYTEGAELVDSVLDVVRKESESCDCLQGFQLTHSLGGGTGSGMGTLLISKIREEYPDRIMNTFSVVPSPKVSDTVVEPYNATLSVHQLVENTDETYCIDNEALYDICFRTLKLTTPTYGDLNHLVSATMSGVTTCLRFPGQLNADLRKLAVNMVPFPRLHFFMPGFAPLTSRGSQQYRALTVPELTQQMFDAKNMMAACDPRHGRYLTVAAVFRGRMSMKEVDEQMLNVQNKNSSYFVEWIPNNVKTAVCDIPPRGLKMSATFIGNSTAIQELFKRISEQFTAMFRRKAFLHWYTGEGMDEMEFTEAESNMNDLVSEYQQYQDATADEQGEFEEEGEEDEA
Sequence (P02550 whole entry): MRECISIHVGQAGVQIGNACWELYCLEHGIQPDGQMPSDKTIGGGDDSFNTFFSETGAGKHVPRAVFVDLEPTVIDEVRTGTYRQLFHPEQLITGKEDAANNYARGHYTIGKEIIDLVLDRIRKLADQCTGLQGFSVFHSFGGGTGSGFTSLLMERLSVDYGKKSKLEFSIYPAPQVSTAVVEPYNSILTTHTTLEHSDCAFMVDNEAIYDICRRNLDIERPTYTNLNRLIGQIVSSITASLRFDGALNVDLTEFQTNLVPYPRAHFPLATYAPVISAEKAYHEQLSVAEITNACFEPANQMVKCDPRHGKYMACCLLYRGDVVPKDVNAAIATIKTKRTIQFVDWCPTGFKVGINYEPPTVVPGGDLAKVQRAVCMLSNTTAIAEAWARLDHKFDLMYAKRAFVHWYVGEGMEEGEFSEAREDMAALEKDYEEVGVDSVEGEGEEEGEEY
Assay summary: Tubulin polymerisation assay (CytoDYNAMIX Screen kit, absorbance at 340 nm)
Applied conditions: tubulin polymerization
Counter-ions that a name gives are not always drawn.
Observed property: IC50 (nM)
Give the value in nM but do not write nM after it.

The following compounds have reported results that may help.
CCCOc1c(OC)cc(Cc2cncc3c(O)c(OCC)ccc23)cc1OC [Compound 19, hydrochloride]	1850
CC[C@]1(O)C[C@@H]2CN(CCc3c([nH]c4ccccc34)[C@@](C(=O)OC)(c3cc4c(cc3OC)N(C)[C@H]3[C@@](O)(C(=O)OC)[C@H](OC(C)=O)[C@]5(CC)C=CCN6CC[C@]43[C@@H]65)C2)C1 [Vinblastine, reference compound]	1050
CCOc1ccc2c(Cc3cc(OC)c(OC)c(OC)c3)cncc2c1N [Compound 3, dihydrochloride]	1040

# input What value of IC50 has been recorded for this entry: COc1cc(C(=O)c2c(C)oc3c(OP(=O)([O-])O)c(OC)ccc23)cc(OC)c1OC.[Na+] [BNC105P, reference compound]
# output 4100

# input Would you kindly repeat that for CCOc1ccc2c(C(=O)c3cc(OC)c(OC)c(OC)c3)cncc2c1N [Compound 29, hydrochloride] ?
# output 880

# input Another compound to check: CCOc1ccc2c(Cc3cc(OC)c(OCC)c(OC)c3)cncc2c1O [Compound 14, hydrochloride]
# output 1050

====

Test system: Endothelial cells (HUVEC)
Assay summary: Neovessels formation inhibition (capillary tube formation on Matrigel)
Assay type: cell-based
Applied conditions: Homo sapiens, HUVEC, read-out: Neovessels Formation Inhibition Total Tubule Length IC50 (nM)
Observed property: IC50
# answer = value followed by unit

CCOc1ccc2c(C(=O)c3cc(OC)c(OC)c(OC)c3)cncc2c1OP(=O)(O)O [Compound 98]	6.5 nM

# input Please provide the recorded IC50 for COc1ccc(N(C)c2nc(C)nc3ccccc23)cc1 [Azixa, reference compound] , tested on Endothelial cells (HUVEC).
# output 2.16 nM

====

System: Endothelial cells (HUVEC)
Assay summary: Neovessels formation inhibition (capillary tube formation on Matrigel)
Format: cell-based
Applied conditions: Homo sapiens; HUVEC on Matrigel, compounds overnight; read-out: Neovessels Formation Inhibition Number of Branch Junctions IC50
Counter-ions that a name gives are not always drawn.
Observed property: pIC50
pIC50 is defined as minus the log10 of a concentration measured in mol/L.

Some solved cases for reference:
CCOc1ccc2c(C(=O)c3cc(OC)c(OC)c(OC)c3)cncc2c1NS(N)(=O)=O [Compound 105, hydrochloride]	8.24
CCOc1ccc2c(C(=O)c3cc(OC)c(OC)c(OC)c3)cncc2c1 [Compound 40, hydrochloride]	8.09
CCOc1ccc2c(C(=O)c3cc(OC)c(OC)c(OC)c3)cncc2c1O [Compound 97, hydrochloride]	8.39
CCOc1ccc2c(Cc3cc(OC)c(OCC(C)C)c(OC)c3)cncc2c1O [Compound 20, hydrochloride]	7.60

# input Requested read-out pIC50, target or system Endothelial cells (HUVEC), entry CCOc1ccc2c(Cc3cc(OC)c(OC)c(OC)c3)cncc2c1N [Compound 3, dihydrochloride]
# output 7.82

# input Do the same for CCOc1ccc2c(Cc3cc(OC)c(OCC)c(OC)c3)cncc2c1N [Compound 18, dihydrochloride] please
# output 7.89

# input Please do the same for CCOc1ccc2c(C(=O)c3cc(OC)c(OCC)c(OC)c3)cncc2c1N [Compound 58, hydrochloride] as well.
# output 9.28

====

System: K562 cell line
Assay summary: MTT assay: cytotoxicity against the K562 cell line
Type: cell-based
Applied conditions: Homo sapiens, K562 cells, 72 h, growth inhibition
Counter-ions that a name gives are not always drawn.
Observed property: log10 IC50 (log10 of the value in nM)
Response schema: value (number) is log10 of IC50 in units of nM.

C=CCOc1c(OC)cc(Cc2cncc3c(O)c(OCC)ccc23)cc1OC [Compound 32, hydrochloride]	1.33
CCOc1ccc2c(Cc3cc(Cl)c(OC)c(Cl)c3)cncc2c1O [Compound 69, hydrochloride]	2.38
CCOc1cc(Cc2cncc3c(O)c(OCC)ccc23)cc(OC)c1OC [Compound 15, hydrochloride]	2.02
CCCOc1c(OC)cc(C(=O)c2cncc3c(OC(C)=O)c(OCC)ccc23)cc1OC [Compound 65]	0.58
O=C(Nc1ccncc1)C(=O)c1cn(Cc2ccc(Cl)cc2)c2ccccc12 [Indibulin, reference compound]	2.29

# input Enter reported log10 IC50 observed with K562 cell line for CCOc1ccc2c(Cc3cc(OC)c(OC)c(OC)c3)cncc2c1OS(N)(=O)=O [Compound 21, hydrochloride]
# output 1.57

# input Moving on to CCOc1ccc2c(Cc3cc(OC)c(CC)c(OC)c3)cncc2c1O [Compound 73, hydrochloride]
# output 2.53

# input Another compound to check: CCOc1ccc2c(C(=O)c3cc(OC)c(OCC(C)C)c(OC)c3)cncc2c1O [Compound 79, hydrochloride]
# output 1.08

====

Entries and their measured pIC50 follow.
Tested on: K562 cell line
Assay summary: MTT assay: cytotoxicity against the K562 cell line
Format: cell-based
Applied conditions: K562 cells, 72 h, growth inhibition
API: returns pIC50 as number; meaning -log10 of concentration in mol/L.

Known pIC50 results, listed for orientation:
COc1ccc(/C=C\c2cc(OC)c(OC)c(OC)c2)cc1N [AVE8063, 3-amino-deoxycombretastatin A-4, reference compound]	8.57
COc1cc(C(=O)c2c(C)oc3c(O)c(OC)ccc23)cc(OC)c1OC [BNC105, reference compound]	9.26

Please look at the following molecule next.
# input Record request: pIC50 value, item COc1cc(C(=O)c2c(C)oc3c(OP(=O)([O-])O)c(OC)ccc23)cc(OC)c1OC.[Na+] [BNC105P, reference compound]
# output 7.76

====

System: Endothelial cells (HUVEC)
Assay summary: Neovessels formation inhibition (capillary tube formation on Matrigel)
Assay type: cell-based
Applied conditions: Homo sapiens; HUVEC on Matrigel, compounds overnight; read-out: Neovessels Formation Inhibition Number of Branch Junctions IC50
Where a name gives a salt, the structure may show the parent alone.
Here, each record is paired with measured pIC50 data.
Lab note — pIC50 values are minus log10 of concentrations in M.

Use these answered entries as a reference point.
CCCOc1c(OC)cc(Cc2cncc3c(N)c(OCC)ccc23)cc1OC [Compound 64, dihydrochloride]	8.15
CCOc1ccc2c(Cc3cc(OC)c(OC)c(OC)c3)cncc2c1O [Compound 1, hydrochloride]	7.41
CCOc1ccc2c(Cc3cc(OC)c(OCC)c(OC)c3)cncc2c1O [Compound 14, hydrochloride]	7.51
CCOc1ccc2c(C(=O)c3cc(OC)c(OCC)c(OC)c3)cncc2c1OS(N)(=O)=O	8.58
CCCOc1c(OC)cc(C(=O)c2cncc3c(O)c(OCC)ccc23)cc1OC [Compound 67, hydrochloride]	8.42

Proceeding to the next compound to report its pIC50.
# input // map COc1ccc(/C=C\c2cc(OC)c(OC)c(OC)c2)cc1NC(=O)[C@@H](N)CO [AVE8062, reference compound] to recorded pIC50 (system: Endothelial cells (HUVEC))
# output 7.86

====

Recorded measurements of log10 of IC50, one per entry
Test system: K562 cell line
Assay summary: MTT assay: cytotoxicity against the K562 cell line
Assay type: cell-based
Applied conditions: Homo sapiens, K562 cells, 72 h, growth inhibition
Structures can show the parent of a compound that is named as a salt.
Please be aware that the numbers have been log10-transformed from IC50 in µM.

Worked examples, 5 compounds total:
CCCCCOc1c(OC)cc(Cc2cncc3c(O)c(OCC)ccc23)cc1OC [Compound 63, hydrochloride]	-0.67
CCOc1ccc2c(Cc3cc(OC)c(OC)c(OCC(F)(F)F)c3)cncc2c1O [Compound 87, hydrochloride]	-0.60
CCCOc1c(OC)cc(Cc2cncc3c(O)c(OCC)ccc23)cc1OC [Compound 19, hydrochloride]	-1.67
CCOc1ccc2c(C(=O)c3cc(OC)c(OC)c(OC)c3)cncc2c1N [Compound 29, hydrochloride]	-2.79
CCOc1ccc2c(Cc3cc(OC)c(OCC)c(OC)c3)cncc2c1 [Compound 13, hydrochloride]	-0.46

# input So what's the measured log10 of IC50 for this one? CCOc1ccc2c(Cc3cc(OC)c(N4CCCC4)c(OC)c3)cncc2c1O [Compound 76, hydrochloride]
# output -0.51

# input CCOc1ccc2c(C(=O)c3cc(OC)c(OC)c(OC)c3)cncc2c1NS(N)(=O)=O [Compound 105, hydrochloride] , same question.
# output -2.38
